// data source = patent US7250278B2

Field: Relative activity. Provide a value for each of the compounds that follow.
Test system: α-keto acid reductase
Experiment Description: Substrate specificity of α-keto acid reductase (reduction reaction)
Format: biochemical, Leuconostoc mesenteroides subsp. dextranicum
Condition Context: coenzyme NADH, substrate 1 mM; reduction activity of 2-chlorophenyl glyoxylic acid taken as 100
Numbers only, in %.

compound="CC(C)(C)C(=O)C(=O)O [trimethyl pyruvic acid]" scale_unit=% reported=0.1

Below are 5 compounds. Give each one its Relative activity.
1. O=C(O)C(=O)c1ccccc1Cl [2-chlorophenyl glyoxylic acid]
2. CC(=O)C(=O)O [pyruvic acid]
3. CCCC(=O)C(=O)O [α-ketovaleric acid]
4. CCCCC(=O)C(=O)O [α-ketocaproic acid]
5. CC(C)CC(=O)C(=O)O [α-ketoisocaproic acid]

Reply |
[100.0, 0.0, 3.1, 4.3, 14.7]
